System: 3T3 mouse cells
Experiment: Cytotoxicity on 3T3 cells in the anti-MCMV cytopathogenicity test
Type: cell-based
Details: 5 days incubation
measure_name: CC50 (µM)

Cc1cc(-c2nc(-c3ccc(S(=O)(=O)Nc4cccc(NC(=O)C5(C)CC5)c4)cc3)no2)n[nH]1
4

###

Assay: Cytotoxicity on 3T3 cells in the anti-MCMV cytopathogenicity test
Type: cell-based
Conditions: mouse, 3T3 mouse cells, 5 days incubation
Attribute: CC50 at 5 days
measure_name: CC50 at 5 days

CN(C)c1cccc(-c2nc(-c3ccc(S(=O)(=O)Nc4cccc(NC(=O)C5(C)CC5)c4)cc3)no2)c1 [Example 2]
0.9 µM
Cc1cc(-c2nc(-c3ccc(S(=O)(=O)Nc4cccc(NC(=O)C5(C)CC5)c4)cc3)no2)nn1C [Example 8]
> 3.9 µM
CC1(C(=O)Nc2cccc(NS(=O)(=O)c3ccc(-c4noc(-c5cscn5)n4)cc3)c2)CC1 [Example 7]
12 µM
CC1(C(=O)Nc2cccc(NS(=O)(=O)c3ccc(-c4noc(-c5ccccn5)n4)cc3)c2)CC1 [Example 3]
23 µM
CC(=O)Nc1cccc(-c2nc(-c3ccc(S(=O)(=O)Nc4cccc(NC(=O)C5(C)CC5)c4)cc3)no2)n1 [Example 132]
2.3 µM
CC1(C(=O)Nc2cccc(NS(=O)(=O)c3ccc(-c4noc(-c5csc(CN)n5)n4)cc3)c2)CC1 [Example 12]
7 µM
CC(C)(CF)C(=O)Nc1ccc(NS(=O)(=O)c2cccc(-c3noc(-c4ccccc4)n3)c2)cc1 [Example 13]
< 16 µM
Cc1cc(-c2nc(-c3ccc(S(=O)(=O)Nc4cccc(NC(=O)C5(C)CC5)c4)cc3)no2)[nH]n1 [Example 6]
2.9 µM

###

Test: Cytotoxicity on HELF cells in the anti-HCMV cytopathogenicity test
Type: cell-based
Settings: human lung fibroblasts (HELF cells), 6 days incubation, visual evaluation
Procedure: The test compounds were employed as 50 millimolar (mM) solutions in dimethyl sulphoxide (DMSO). Ganciclovir, foscarnet and cidofovir served as reference compounds. […] The plates were then evaluated visually using an overhead microscope (plaque multiplier from Technomara). From the test plates, the following data were determined: CC50 (HELF)=substance concentration in μM at which, compared to the untreated cell control, no visible cytostatic effects on the cells were noticeable;
measure_name: CC50 at 6 days (µM)

CC(=O)Nc1cccc(-c2nc(-c3ccc(S(=O)(=O)Nc4cccc(NC(=O)C5(C)CC5)c4)cc3)no2)n1
47
CC(C)(CF)C(=O)Nc1cccc(NS(=O)(=O)c2ccc(-c3noc(-c4ccccn4)n3)cc2)c1
110
Cc1cc(-c2nc(-c3ccc(S(=O)(=O)Nc4cccc(NC(=O)C5(C)CC5)c4)cc3)no2)[nH]n1
39
CC1(C(=O)Nc2cccc(NS(=O)(=O)c3ccc(-c4noc(-c5csc(CN)n5)n4)cc3)c2)CC1
14
CC1(C(=O)Nc2cccc(NS(=O)(=O)c3ccc(-c4noc(-c5cscn5)n4)cc3)c2)CC1
47
CC1(C(=O)Nc2cccc(NS(=O)(=O)c3ccc(-c4noc(-c5cccc(N)n5)n4)cc3)c2)CC1
94
CC(C)(CF)C(=O)Nc1cccc(NS(=O)(=O)c2ccc(-c3noc(-c4cccc(N)n4)n3)cc2)c1
47

###

System: MCMV
Assay: Anti-MCMV cytopathogenicity test
Assay type: cell-based, murine cytomegalovirus
Conditions: selectivity index, 3T3 CC50 / MCMV EC50
Experimental: Anti-HCMV (Anti-Human Cytomegalovirus) and anti-MCMV (Anti-Murine Cytomegalovirus) cytopathogenicity tests: The test compounds were employed as 50 millimolar (mM) solutions in dimethyl sulphoxide (DMSO). Ganciclovir, foscarnet and cidofovir served as reference compounds. […] The plates were then evaluated visually using an overhead microscope (plaque multiplier from Technomara). […]
measure_name: SI MCMV

CC1(C(=O)Nc2cccc(NS(=O)(=O)c3ccc(-c4noc(-c5csc(CN)n5)n4)cc3)c2)CC1
121
Cc1cc(-c2nc(-c3ccc(S(=O)(=O)Nc4cccc(NC(=O)C5(C)CC5)c4)cc3)no2)[nH]n1
71
CC1(C(=O)Nc2cccc(NS(=O)(=O)c3ccc(-c4noc(-c5csc(N)n5)n4)cc3)c2)CC1
733
CC(C)(CF)C(=O)Nc1cccc(NS(=O)(=O)c2ccc(-c3noc(-c4ccccn4)n3)cc2)c1
1737
CC1(C(=O)Nc2cccc(NS(=O)(=O)c3ccc(-c4noc(-c5cccc(N)n5)n4)cc3)c2)CC1
1617
CC(C)(CF)C(=O)Nc1cccc(NS(=O)(=O)c2ccc(-c3noc(-c4cccc(N)n4)n3)cc2)c1
273
Cc1cc(-c2nc(-c3ccc(S(=O)(=O)Nc4cccc(NC(=O)C5(C)CC5)c4)cc3)no2)n[nH]1
59
CC1(C(=O)Nc2cccc(NS(=O)(=O)c3ccc(-c4noc(-c5cscn5)n4)cc3)c2)CC1
480
CC1(C(=O)Nc2cccc(NS(=O)(=O)c3ccc(-c4noc(-c5ccccn5)n4)cc3)c2)CC1
2875
CC(=O)Nc1cccc(-c2nc(-c3ccc(S(=O)(=O)Nc4cccc(NC(=O)C5(C)CC5)c4)cc3)no2)n1
767
CN(C)c1cccc(-c2nc(-c3ccc(S(=O)(=O)Nc4cccc(NC(=O)C5(C)CC5)c4)cc3)no2)c1
20

###

Test system: human lung fibroblasts [HELF]
Assay: Cytotoxicity on HELF cells in the anti-HCMV cytopathogenicity test
Type: cell-based
Details: 6 days incubation, visual evaluation
measure_name: CC50 (µM)

Cc1cc(-c2nc(-c3ccc(S(=O)(=O)Nc4cccc(NC(=O)C5(C)CC5)c4)cc3)no2)n[nH]1
39

###

Test: Cytotoxicity on 3T3 cells in the anti-MCMV cytopathogenicity test
Assay type: cell-based
Details: mouse, 3T3 mouse cells, 5 days incubation
measure_name: CC50 at 5 days (µM)

CC1(C(=O)Nc2cccc(NS(=O)(=O)c3ccc(-c4noc(-c5csc(N)n5)n4)cc3)c2)CC1
11
CC1(C(=O)Nc2cccc(NS(=O)(=O)c3ccc(-c4noc(-c5cccc(N)n5)n4)cc3)c2)CC1
8
CC(C)(CF)C(=O)Nc1cccc(NS(=O)(=O)c2ccc(-c3noc(-c4ccccn4)n3)cc2)c1
33
CC(C)(CF)C(=O)Nc1cccc(NS(=O)(=O)c2ccc(-c3noc(-c4cccc(N)n4)n3)cc2)c1
3

###

Attribute: CC50 at 6 days
Test: Cytotoxicity on HELF cells in the anti-HCMV cytopathogenicity test
Type: cell-based
Settings: human lung fibroblasts (HELF cells), 6 days incubation, visual evaluation
measure_name: CC50 at 6 days

CC1(C(=O)Nc2ccc(NS(=O)(=O)c3cccc(-c4nnc(-c5ccccn5)s4)c3)cc2)CC1
> 28 µM
Cc1nc(-c2nc(-c3ccc(S(=O)(=O)Nc4cccc(NC(=O)C5(C)CC5)c4)cc3)no2)cs1
> 16 µM
Cc1cc(-c2nc(-c3ccc(S(=O)(=O)Nc4cccc(NC(=O)C5(C)CC5)c4)cc3)no2)nn1C
> 2.2 µM
CC1(C(=O)Nc2cccc(NS(=O)(=O)c3ccc(-c4noc(-c5ccccn5)n4)cc3)c2)CC1
< 140 µM
Cc1cccc(-c2nc(-c3ccc(S(=O)(=O)Nc4cccc(NC(=O)C5(C)CC5)c4)cc3)no2)n1
> 16 µM
CC1(C(=O)Nc2cccc(NS(=O)(=O)c3ccc(-c4noc(-c5csc(N)n5)n4)cc3)c2)CC1
> 63 µM
CN(C)c1cccc(-c2nc(-c3ccc(S(=O)(=O)Nc4cccc(NC(=O)C5(C)CC5)c4)cc3)no2)c1
< 16 µM
CC(C)(CF)C(=O)Nc1ccc(NS(=O)(=O)c2cccc(-c3noc(-c4ccccc4)n3)c2)cc1
< 8 µM
CC1(C(=O)Nc2cccc(NS(=O)(=O)c3ccc(-c4noc(-c5nccc6ccccc56)n4)cc3)c2)CC1
> 3.9 µM

###

Tested on: MCMV
Assay: Anti-MCMV cytopathogenicity test
Format: cell-based, murine cytomegalovirus
Conditions: selectivity index, 3T3 CC50 / MCMV EC50
measure_name: SI MCMV

Cc1nc(-c2nc(-c3ccc(S(=O)(=O)Nc4cccc(NC(=O)C5(C)CC5)c4)cc3)no2)cs1 [Example 11]
>5850
Cc1cc(-c2nc(-c3ccc(S(=O)(=O)Nc4cccc(NC(=O)C5(C)CC5)c4)cc3)no2)nn1C [Example 8]
>163
Cc1cccc(-c2nc(-c3ccc(S(=O)(=O)Nc4cccc(NC(=O)C5(C)CC5)c4)cc3)no2)n1 [Example 5]
>2214
CC(C)(CF)C(=O)Nc1ccc(NS(=O)(=O)c2cccc(-c3noc(-c4ccccc4)n3)c2)cc1 [Example 13]
<533
CC1(C(=O)Nc2cccc(NS(=O)(=O)c3ccc(-c4noc(-c5nccc6ccccc56)n4)cc3)c2)CC1 [Example 10]
>975

###

Assay: Cytotoxicity on 3T3 cells in the anti-MCMV cytopathogenicity test
Assay type: cell-based
Conditions: mouse, 3T3 mouse cells, 5 days incubation
measure_name: CC50 at 5 days

CC1(C(=O)Nc2cccc(NS(=O)(=O)c3ccc(-c4noc(-c5nccc6ccccc56)n4)cc3)c2)CC1
> 7.8 µM
Cc1nc(-c2nc(-c3ccc(S(=O)(=O)Nc4cccc(NC(=O)C5(C)CC5)c4)cc3)no2)cs1
> 12 µM
Cc1cccc(-c2nc(-c3ccc(S(=O)(=O)Nc4cccc(NC(=O)C5(C)CC5)c4)cc3)no2)n1
> 31 µM
